- Test system: 996289-038-R-J1-PDC spheroid viability
- TEST PROTOCOL: Anticancer human tumor 996289-038-R-J1-PDC patient-derived colon adenocarcinoma cell line growth inhibition [PI3K]
- EXPERIMENTAL SETUP: second compound 0.00316 µM; first compound 0.0316 µM; stronger effect = lower value; spheroids with HUVEC and MSC
QUANTITY KIND: viability, T/C (%)
Provide the reading as a plain figure in %.

Use these answered entries as a reference point.
MOLECULE	QUANTITY KIND	ENDPOINT RESULT
Cn1nccc1Nc1nccc(-c2ccn(C(CO)c3ccc(Cl)c(F)c3)c(=O)c2)n1 (centres undefined) + COc1c(OCCCN2CCOCC2)ccc2c3n(c(=NC(=O)c4cnc(N)nc4)nc12)CCN3	viability, T/C	94.8
CC(C)n1nc(-c2ccc3oc(N)nc3c2)c2c(N)ncnc21 + COc1c(OCCCN2CCOCC2)ccc2c3n(c(=NC(=O)c4cnc(N)nc4)nc12)CCN3	viability, T/C	63.5
Cn1ncnc1[C@H]1c2n[nH]c(=O)c3cc(F)cc(c23)N[C@@H]1c1ccc(F)cc1 + CC(Nc1ccc2c(c1)OCCn1cc(N3C(=O)OCC3C(F)F)nc1-2)C(N)=O	viability, T/C	99.5

Read the next record carefully.
Value of measured viability, T/C for the entry Cn1ncc(Cl)c1-c1cc(C(=O)NC(CN)Cc2cccc(F)c2)sc1Cl (centres undefined) + COc1c(OCCCN2CCOCC2)ccc2c3n(c(=NC(=O)c4cnc(N)nc4)nc12)CCN3 : 99.4

###

- System: 996289-038-R-J1-PDC spheroid viability
- TEST PROTOCOL: Anticancer human tumor 996289-038-R-J1-PDC cell line growth inhibition [PI3K];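 further: spheroids exposed to compounds for seven days before viability read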;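 on viability, T/C: luminescence used as a proxy for viable cell amount; percent viability relative to DMSO vehicle control as 100%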
- EXPERIMENTAL SETUP: second compound 1 µM; first compound 0.001 µM; stronger effect = lower value; spheroids with HUVEC and MSC
Classify: TRUE when viability, T/C is strictly less than 90%; FALSE when viability, T/C is not.

>>> df
                                   molecule  class_name
0  CC(C)n1nc(-c2ccc3oc(N)nc3c2)c2c(N)ncnc21 + Cc1nc(NC(=O)N2CCCC2C(N)=O)sc1-c1ccnc(C(C)(C)C(F)(F)F)c1        TRUE
1  CC(C)n1nc(-c2ccc3oc(N)nc3c2)c2c(N)ncnc21 + COc1c(OCCCN2CCOCC2)ccc2c3n(c(=NC(=O)c4cnc(N)nc4)nc12)CCN3        TRUE
2  Cn1ncnc1[C@H]1c2n[nH]c(=O)c3cc(F)cc(c23)N[C@@H]1c1ccc(F)cc1 + Cc1nc(NC(=O)N2CCCC2C(N)=O)sc1-c1ccnc(C(C)(C)C(F)(F)F)c1        TRUE
3  Cn1ncnc1[C@H]1c2n[nH]c(=O)c3cc(F)cc(c23)N[C@@H]1c1ccc(F)cc1 + COc1c(OCCCN2CCOCC2)ccc2c3n(c(=NC(=O)c4cnc(N)nc4)nc12)CCN3        TRUE
4  CC(C)n1nc(-c2ccc3oc(N)nc3c2)c2c(N)ncnc21 + CC(Nc1ncnc2nc[nH]c12)c1cc2cccc(Cl)c2c(=O)n1-c1ccccc1       FALSE

Attention now shifts to the item below.
Take the molecule Cn1ncnc1[C@H]1c2n[nH]c(=O)c3cc(F)cc(c23)N[C@@H]1c1ccc(F)cc1 + CC(Nc1ncnc2nc[nH]c12)c1cc2cccc(Cl)c2c(=O)n1-c1ccccc1 and say whether its viability, T/C is less than 90%.
FALSE

###

- System: 996289-038-R-J1-PDC spheroid viability
- TEST PROTOCOL: Anticancer human tumor 996289-038-R-J1-PDC cell line growth inhibition [PI3K];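 further: spheroids exposed to compounds for seven days before viability read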;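 on viability, T/C: luminescence used as a proxy for viable cell amount; percent viability relative to DMSO vehicle control as 100%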
- EXPERIMENTAL SETUP: second compound 10 µM; first compound 0.1 µM; stronger effect = lower value; spheroids with HUVEC and MSC
QUANTITY KIND: viability, T/C (%)
Reply numerically in %, unit not repeated.

The examples below pair each entry with its known result.
COMPOUND	viability, T/C, %
CC1(C)CCC(CN2CCN(c3ccc(C(=O)NS(=O)(=O)c4ccc(NCC5CCOCC5)c([N+](=O)[O-])c4)c(Oc4cnc5[nH]ccc5c4)c3)CC2)=C(c2ccc(Cl)cc2)C1 + Cc1nc(NC(=O)N2CCCC2C(N)=O)sc1-c1ccnc(C(C)(C)C(F)(F)F)c1	41.8
Cn1ncnc1[C@H]1c2n[nH]c(=O)c3cc(F)cc(c23)N[C@@H]1c1ccc(F)cc1 + CC(Nc1ncnc2nc[nH]c12)c1cc2cccc(Cl)c2c(=O)n1-c1ccccc1	77.8
Cn1ncc(Cl)c1-c1cc(C(=O)NC(CN)Cc2cccc(F)c2)sc1Cl (stereo not given) + CC(Nc1ncnc2nc[nH]c12)c1cc2cccc(Cl)c2c(=O)n1-c1ccccc1	91.2

Consider CC1(C)CCC(CN2CCN(c3ccc(C(=O)NS(=O)(=O)c4ccc(NCC5CCOCC5)c([N+](=O)[O-])c4)c(Oc4cnc5[nH]ccc5c4)c3)CC2)=C(c2ccc(Cl)cc2)C1 + CC(Nc1ncnc2nc[nH]c12)c1cc2cccc(Cl)c2c(=O)n1-c1ccccc1 . Its measured viability, T/C is 88.9

// sample Cn1nccc1Nc1nccc(-c2ccn(C(CO)c3ccc(Cl)c(F)c3)c(=O)c2)n1 (stereo not given) + CC(Nc1ncnc2nc[nH]c12)c1cc2cccc(Cl)c2c(=O)n1-c1ccccc1 , its viability, T/C was 88.5

###

- System: 996289-038-R-J1-PDC spheroid viability
- TEST PROTOCOL: Anticancer human tumor 996289-038-R-J1-PDC cell line growth inhibition [PI3K];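 further: spheroids exposed to compounds for seven days before viability read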;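 on viability, T/C: luminescence used as a proxy for viable cell amount; percent viability relative to DMSO vehicle control as 100%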
- EXPERIMENTAL SETUP: second compound 0.00316 µM; first compound 0.1 µM; stronger effect = lower value; spheroids with HUVEC and MSC
QUANTITY KIND: viability, T/C (%)
Supply the numeric figure in %, leaving out any unit text.

>>> df
                                   compound  readout_unit  endpoint_result
0  CC(=O)c1c(C)c2cnc(Nc3ccc(N4CCNCC4)cn3)nc2n(C2CCCC2)c1=O + CC(Nc1ccc2c(c1)OCCn1cc(N3C(=O)OCC3C(F)F)nc1-2)C(N)=O             %             93.3

Just so you know, measured viability, T/C for CNC(=O)c1ccc(N2C(=S)N(c3ccc(C#N)c(C(F)(F)F)c3)C(=O)C2(C)C)cc1F + CC(Nc1ccc2c(c1)OCCn1cc(N3C(=O)OCC3C(F)F)nc1-2)C(N)=O came out at 95.5

What the record says about CC(C)n1nc(-c2ccc3oc(N)nc3c2)c2c(N)ncnc21 + COc1c(OCCCN2CCOCC2)ccc2c3n(c(=NC(=O)c4cnc(N)nc4)nc12)CCN3 : viability, T/C is 34.5

###

- Test system: 996289-038-R-J1-PDC spheroid viability
- TEST PROTOCOL: Anticancer human tumor 996289-038-R-J1-PDC cell line growth inhibition [PI3K];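 further: spheroids exposed to compounds for seven days before viability read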;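 on viability, T/C: luminescence used as a proxy for viable cell amount; percent viability relative to DMSO vehicle control as 100%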
- EXPERIMENTAL SETUP: second compound 3.16 µM; first compound 1 µM; stronger effect = lower value; spheroids with HUVEC and MSC
QUANTITY KIND: viability, T/C (%)
Only the number, expressed in %, is required.

Here is how some compounds turned out for viability, T/C.
COMPOUND	READOUT UNIT	viability, T/C
C=CC(=O)N1CCN(c2nc(=O)n(-c3c(C)ccnc3C(C)C)c3nc(-c4c(O)cccc4F)c(F)cc23)C(C)C1 (stereo not given) + CC(Nc1ncnc2nc[nH]c12)c1cc2cccc(Cl)c2c(=O)n1-c1ccccc1	%	101
CNC(=O)c1ccc(N2C(=S)N(c3ccc(C#N)c(C(F)(F)F)c3)C(=O)C2(C)C)cc1F + CC(Nc1ncnc2nc[nH]c12)c1cc2cccc(Cl)c2c(=O)n1-c1ccccc1	%	109
CCN1CCN(Cc2ccc(Nc3ncc(F)c(-c4cc(F)c5nc(C)n(C(C)C)c5c4)n3)nc2)CC1 + CC(Nc1ncnc2nc[nH]c12)c1cc2cccc(Cl)c2c(=O)n1-c1ccccc1	%	68.8
C[C@@H](NC(=O)c1ncnc(N)c1Cl)c1ncc(C(=O)Nc2cc(C(F)(F)F)c(Cl)cn2)s1 + Cc1nc(NC(=O)N2CCCC2C(N)=O)sc1-c1ccnc(C(C)(C)C(F)(F)F)c1	%	67.7

GET /value?item= CCCS(=O)(=O)Nc1ccc(F)c(C(=O)c2c[nH]c3ncc(-c4ccc(Cl)cc4)cc23)c1F + CC(Nc1ncnc2nc[nH]c12)c1cc2cccc(Cl)c2c(=O)n1-c1ccccc1 &field=viability, T/C returns 85.6

###

- Tested on: 996289-038-R-J1-PDC spheroid viability
- TEST PROTOCOL: Anticancer human tumor 996289-038-R-J1-PDC cell line growth inhibition [PI3K];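 further: spheroids exposed to compounds for seven days before viability read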
- EXPERIMENTAL SETUP: curve of first compound; second compound 0.0316 µM; spheroids with HUVEC and MSC
pIC50: −log10 of the molar value.
QUANTITY KIND: pIC50

Examples from the recorded data:
COMPOUND	pIC50
Cn1ncnc1[C@H]1c2n[nH]c(=O)c3cc(F)cc(c23)N[C@@H]1c1ccc(F)cc1 + COc1c(OCCCN2CCOCC2)ccc2c3n(c(=NC(=O)c4cnc(N)nc4)nc12)CCN3	< 7.00
CC1(C)CCC(CN2CCN(c3ccc(C(=O)NS(=O)(=O)c4ccc(NCC5CCOCC5)c([N+](=O)[O-])c4)c(Oc4cnc5[nH]ccc5c4)c3)CC2)=C(c2ccc(Cl)cc2)C1 + CC(Nc1ncnc2nc[nH]c12)c1cc2cccc(Cl)c2c(=O)n1-c1ccccc1	< 5.00

Noted pIC50 for CC(C)NCC(C(=O)N1CCN(c2ncnc3c2C(C)CC3O)CC1)c1ccc(Cl)cc1 (stereo not given) + CC(Nc1ncnc2nc[nH]c12)c1cc2cccc(Cl)c2c(=O)n1-c1ccccc1 , tested on 996289-038-R-J1-PDC spheroid viability: < 5.00

Log: 996289-038-R-J1-PDC spheroid viability, compound CCN1CCN(Cc2ccc(Nc3ncc(F)c(-c4cc(F)c5nc(C)n(C(C)C)c5c4)n3)nc2)CC1 + CC(Nc1ncnc2nc[nH]c12)c1cc2cccc(Cl)c2c(=O)n1-c1ccccc1 , pIC50 = < 6.00

996289-038-R-J1-PDC spheroid viability data for CNC(=O)c1ccc(N2C(=S)N(c3ccc(C#N)c(C(F)(F)F)c3)C(=O)C2(C)C)cc1F + CC(Nc1ncnc2nc[nH]c12)c1cc2cccc(Cl)c2c(=O)n1-c1ccccc1 ; its pIC50: < 5.00
